biological target: Leukotriene A-4 hydrolase (Homo sapiens, UniProt P09960); experiment: Inhibition of human LTA4 hydrolase activity assessed as LTB4 production after 15 mins by ELISA
Sequence (P09960 whole entry): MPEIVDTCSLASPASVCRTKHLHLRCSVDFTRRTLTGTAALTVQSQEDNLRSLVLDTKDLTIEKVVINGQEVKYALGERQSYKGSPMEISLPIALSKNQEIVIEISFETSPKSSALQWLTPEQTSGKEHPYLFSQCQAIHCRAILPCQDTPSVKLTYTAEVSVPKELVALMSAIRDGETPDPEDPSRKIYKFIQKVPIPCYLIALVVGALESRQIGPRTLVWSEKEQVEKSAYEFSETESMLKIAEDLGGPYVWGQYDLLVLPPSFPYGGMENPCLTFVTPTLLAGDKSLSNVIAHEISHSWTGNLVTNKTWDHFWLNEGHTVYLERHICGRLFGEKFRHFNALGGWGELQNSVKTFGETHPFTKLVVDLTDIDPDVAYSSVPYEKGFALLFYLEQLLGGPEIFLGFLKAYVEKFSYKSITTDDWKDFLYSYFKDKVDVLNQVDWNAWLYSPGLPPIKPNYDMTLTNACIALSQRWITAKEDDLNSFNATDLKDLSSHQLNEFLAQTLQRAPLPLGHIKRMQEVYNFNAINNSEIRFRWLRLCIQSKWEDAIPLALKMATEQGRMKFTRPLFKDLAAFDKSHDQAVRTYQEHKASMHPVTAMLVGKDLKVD
The compounds listed here are annotated with their IC50.

{"columns": ["Molecule", "IC50"],
 "data": [
  ["CS(=O)(=O)N(c1ccccc1Oc1ccc(OCCN2CCCC2)cc1)S(C)(=O)=O", "> 100 µM"],
  ["CS(=O)(=O)c1ccccc1Oc1ccc(OCCN2CCCC2)cc1", "> 100 µM"],
  ["CS(=O)(=O)N(c1cccc(Oc2ccc(OCCN3CCCC3)cc2)c1)S(C)(=O)=O", "> 100 µM"]
]}
